TARGET_OR_TEST_SYSTEM: BTK (Homo sapiens)
Sequence (Q06187 402-655 limits assumed): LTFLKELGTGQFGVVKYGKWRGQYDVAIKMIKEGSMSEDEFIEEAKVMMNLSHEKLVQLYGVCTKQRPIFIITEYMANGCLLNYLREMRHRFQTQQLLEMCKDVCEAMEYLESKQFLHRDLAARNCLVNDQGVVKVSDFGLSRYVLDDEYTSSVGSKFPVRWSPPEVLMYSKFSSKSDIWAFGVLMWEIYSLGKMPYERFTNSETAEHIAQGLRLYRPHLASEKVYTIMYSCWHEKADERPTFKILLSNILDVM
METHOD_NOTES: biochemical
MEASUREMENT_SETUP: read-out: BTK inhibition (%), 0.75 uM BTK, […] probe 3l, 15 min preincubation
RECORDED_ENDPOINT: inhibition at 10 µM (%)
Express your answer in %, writing the number without its unit.

Recorded results for 5 compounds are shown here.
Data point: CC(C)=CCC[C@@](C)(O)[C@H]1CC[C@]2(C)[C@@H]1[C@H](O)C[C@@H]1[C@@]3(C)CC[C@H](O[C@@H]4O[C@H](CO)[C@@H](O)[C@H](O)[C@H]4O[C@@H]4O[C@H](CO)[C@@H](O)[C@H](O)[C@H]4O)C(C)(C)[C@@H]3CC[C@]12C [PCM-0216609] ; inhibition at 10 µM = 21.6

Data point: O=c1ccn([C@@H]2O[C@H](CO)[C@@H](O)[C@@H]2O)c(=O)[nH]1 [PCM-0215072] ; inhibition at 10 µM = 5.4

Data point: CN1c2cc(O)c(N=NC(N)=O)cc2CC1S(=O)(=O)O (stereo not shown) [PCM-0095446] ; inhibition at 10 µM = -10.9

Data point: CCc1ccc(Cc2ccc3c(c2)[C@]2(OC3)O[C@H](CO)[C@@H](O)[C@H](O)[C@H]2O)cc1 [PCM-0215855] ; inhibition at 10 µM = 5.4

Data point: CCn1cc(C(=O)O)c(=O)c2cc(F)c(N3CCNCC3)nc21 [PCM-0086249] ; inhibition at 10 µM = 4.7

***
Data point: CCCC[C@@H](C=O)NC(=O)[C@H](CC(C)C)NC(=O)OCc1ccccc1 [PCM-0215437] ; inhibition at 10 µM = -4.6

The measured values listed here are drawn from paper PMC8041284.
